self-splicing fitness (ln) reference
Assay: self-splicing fitness, log relative to wild type (ln ratio); higher = more splicing; Tetrahymena group I intron in knt gene, E. coli kanamycin selection, DiMSum; sequences stand for … in CUCUCU…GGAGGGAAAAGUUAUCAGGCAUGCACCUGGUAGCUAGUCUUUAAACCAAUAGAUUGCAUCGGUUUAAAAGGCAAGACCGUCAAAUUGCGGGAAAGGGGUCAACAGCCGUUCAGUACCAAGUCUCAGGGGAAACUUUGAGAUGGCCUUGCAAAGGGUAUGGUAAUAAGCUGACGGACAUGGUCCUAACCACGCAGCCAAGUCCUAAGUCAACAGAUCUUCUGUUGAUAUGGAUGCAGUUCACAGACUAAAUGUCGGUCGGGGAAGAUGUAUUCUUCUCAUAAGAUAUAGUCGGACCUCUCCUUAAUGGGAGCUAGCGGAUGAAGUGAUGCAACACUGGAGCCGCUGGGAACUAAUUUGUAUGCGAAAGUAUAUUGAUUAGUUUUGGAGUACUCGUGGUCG;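 note: selection with 25 µg/mL kanamycin versus none on LB agar overnight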
Conditions: 37 °C
measured-endpoint: self-splicing fitness (ln)

• GUCGAGCAAUAUUACGAUUC = -0.941
• CUGAAGCAAUAUUACGGCUA = -1.22
• AGGUAGCAAUAUUACGACCU = -2.42
• UUAGAGCAAUAUUACGACGG = -7.81e-05
• GGUAAGCAAUAUUACGUUCC = -2.85
• CUCUAGCAAUAUUACGAACA = -2.98
• UGUAAGCAAUAUUACGAUAC = -2.07
• CGCCAGCAAUAUUACGUCUG = -0.917
• CUAUAGCAAUAUUACGCGGC = 0.45
• GAUAAGCAAUAUUACGGGAG = -2.34
• GUUCAGCAAUAUUACGCAAG = -0.654
• AGCAAGCAAUAUUACGGCGG = 0.133
• GAGAAGCAAUAUUACGACGU = 0.108
• CGGUAGCAAUAUUACGGGUU = -3.67
• GGGCAGCAAUAUUACGUCAC = -1.18
• UCUAAGCAAUAUUACGCAUC = -3.33
• GGUAAGCAAUAUUACGAUGA = -0.16
• GUGGAGCAAUAUUACGUGGU = -2.51
• UCAUAGCAAUAUUACGCUGC = -2.52
• AAAGAGCAAUAUUACGGCCU = -0.199
• UAACAGCAAUAUUACGGUAC = -2.06
• CAAAAGCAAUAUUACGCAUC = -1.52
• UUCAAGCAAUAUUACGUUUC = -2.25
• AAAAAGCAAUAUUACGUUGU = -2.01
• UAUGAGCAAUAUUACGUGUU = -2.99
• CGCUAGCAAUAUUACGUGCC = -0.959
• UAAAAGCAAUAUUACGGACG = 0.00931
• AUACAGCAAUAUUACGCGGG = -1.75
• ACCUAGCAAUAUUACGAGAG = -0.462
• UCGAAGCAAUAUUACGCGCA = -0.635
• CACCAGCAAUAUUACGGCUG = -1.29
• GGCAAGCAAUAUUACGUUGA = -0.307
• UUAUAGCAAUAUUACGCAUA = -0.953
• GUUUAGCAAUAUUACGAUGA = -1.39
